Reference for the values: patent US20240384268A1

Biological target: TLR8 (Homo sapiens, UniProt Q9NR97)
Sequence (Q9NR97 27-1041): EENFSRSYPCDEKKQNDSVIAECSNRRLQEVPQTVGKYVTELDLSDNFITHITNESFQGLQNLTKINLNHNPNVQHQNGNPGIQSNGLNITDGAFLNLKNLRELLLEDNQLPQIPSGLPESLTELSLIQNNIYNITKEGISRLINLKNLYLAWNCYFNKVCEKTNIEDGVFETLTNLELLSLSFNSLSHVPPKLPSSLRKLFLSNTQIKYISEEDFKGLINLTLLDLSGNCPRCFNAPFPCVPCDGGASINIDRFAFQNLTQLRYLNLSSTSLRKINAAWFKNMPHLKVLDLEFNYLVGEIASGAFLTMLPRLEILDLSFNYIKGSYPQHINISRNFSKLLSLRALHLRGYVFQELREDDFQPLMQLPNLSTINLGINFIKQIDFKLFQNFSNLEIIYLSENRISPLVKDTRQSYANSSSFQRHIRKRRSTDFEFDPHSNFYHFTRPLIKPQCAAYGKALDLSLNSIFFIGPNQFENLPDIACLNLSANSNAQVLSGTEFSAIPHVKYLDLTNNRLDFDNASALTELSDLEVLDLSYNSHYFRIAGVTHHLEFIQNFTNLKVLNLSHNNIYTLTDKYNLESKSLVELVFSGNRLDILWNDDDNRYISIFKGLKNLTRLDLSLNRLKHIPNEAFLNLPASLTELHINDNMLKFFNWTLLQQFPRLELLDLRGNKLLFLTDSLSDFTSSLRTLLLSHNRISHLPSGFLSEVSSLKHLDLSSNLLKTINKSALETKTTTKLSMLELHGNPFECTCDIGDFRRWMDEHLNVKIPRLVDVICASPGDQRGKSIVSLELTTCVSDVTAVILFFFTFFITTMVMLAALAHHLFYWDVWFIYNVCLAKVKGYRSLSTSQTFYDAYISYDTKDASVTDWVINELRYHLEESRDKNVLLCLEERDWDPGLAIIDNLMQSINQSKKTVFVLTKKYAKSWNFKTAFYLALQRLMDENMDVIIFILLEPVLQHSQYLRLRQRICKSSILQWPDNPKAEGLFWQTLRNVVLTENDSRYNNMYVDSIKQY
Assay: HEK-TLR8 NF-κB-luciferase reporter, R848 or Motolimod stimulation (potentiation or inhibition)
Format: cell-based
Design: expressed in transfected cells; host or cells: 293XLhTLR8 (HEK293)
Details: ASO 500 nM; relative to R848 only
Recorded TLR8 500 nM (averaged NF-κB-Luciferase level relative to R848 condition, fold increase) by entry
Reply with just the number.

TGGTGGCCACCCATCT (antisense; LNA-modified, pattern not given here) [CTNN2B-2479 LNA V1]: 0.604

TLR8 500 nM (averaged NF-κB-Luciferase level relative to R848 condition, fold increase) reported for this sequence TCTTCATCGGCCCTGC (antisense; LNA-modified, pattern not given here) [CAMSAP1-2112 LNA V1] : 1.393

TLR8 500 nM (averaged NF-κB-Luciferase level relative to R848 condition, fold increase) reported for this sequence ACTTCGTGGGGTCCTT (antisense; LNA-modified, pattern not given here) [HPRT LNA-663 V1] : 3.672

TLR8 500 nM (averaged NF-κB-Luciferase level relative to R848 condition, fold increase) reported for this sequence TCGTGGGGTCCTTTTC (antisense; LNA-modified, pattern not given here) [HPRT LNA-660 V1] : 2.966

TLR8 500 nM (averaged NF-κB-Luciferase level relative to R848 condition, fold increase) reported for this sequence CGCTTTTCTGTCTGGT (antisense; LNA-modified, pattern not given here) [CTNN2B-311 LNA KL] : 2.896

TLR8 500 nM (averaged NF-κB-Luciferase level relative to R848 condition, fold increase) reported for this sequence TCCGCCCAAAGGGAAC (antisense; LNA-modified, pattern not given here) [HPRT LNA-1027 KL] : 0.725

TLR8 500 nM (averaged NF-κB-Luciferase level relative to R848 condition, fold increase) reported for this sequence AGGTCTTGGCTTCGTG (antisense; LNA-modified, pattern not given here) [MB21D1-524 LNA V1] : 1.953

* * *

Target: human TLR7 (Homo sapiens, UniProt Q9NYK1)
Construct: HA; host or cells: 293XL-hTLR7-HA (HEK293)
Sequence (Q9NYK1 27-1049): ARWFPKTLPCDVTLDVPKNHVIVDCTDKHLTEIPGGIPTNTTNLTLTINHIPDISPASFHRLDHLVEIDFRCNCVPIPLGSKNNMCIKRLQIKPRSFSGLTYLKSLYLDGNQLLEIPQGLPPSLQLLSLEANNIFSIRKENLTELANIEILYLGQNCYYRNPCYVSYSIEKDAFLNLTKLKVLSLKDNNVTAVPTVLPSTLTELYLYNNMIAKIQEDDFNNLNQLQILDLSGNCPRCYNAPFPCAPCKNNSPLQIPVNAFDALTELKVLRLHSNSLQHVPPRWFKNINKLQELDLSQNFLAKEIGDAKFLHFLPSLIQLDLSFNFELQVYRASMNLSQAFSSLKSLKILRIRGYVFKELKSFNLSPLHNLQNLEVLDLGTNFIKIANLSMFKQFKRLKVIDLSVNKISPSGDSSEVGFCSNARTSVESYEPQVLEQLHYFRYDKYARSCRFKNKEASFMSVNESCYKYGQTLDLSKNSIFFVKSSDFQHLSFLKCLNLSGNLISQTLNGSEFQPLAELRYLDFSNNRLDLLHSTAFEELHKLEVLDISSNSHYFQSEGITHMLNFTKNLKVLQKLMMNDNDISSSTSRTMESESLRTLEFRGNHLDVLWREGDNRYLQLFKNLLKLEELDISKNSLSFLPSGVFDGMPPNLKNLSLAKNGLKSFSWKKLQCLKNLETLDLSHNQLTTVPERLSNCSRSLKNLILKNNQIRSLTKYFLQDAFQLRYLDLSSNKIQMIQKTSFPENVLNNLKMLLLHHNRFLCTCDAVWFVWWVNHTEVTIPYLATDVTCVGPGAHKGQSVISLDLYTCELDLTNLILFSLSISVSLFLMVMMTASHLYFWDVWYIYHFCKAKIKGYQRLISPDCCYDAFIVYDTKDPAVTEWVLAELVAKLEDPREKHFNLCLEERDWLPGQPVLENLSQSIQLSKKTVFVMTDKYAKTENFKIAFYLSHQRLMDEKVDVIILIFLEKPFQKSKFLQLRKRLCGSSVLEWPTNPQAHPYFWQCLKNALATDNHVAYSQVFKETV
Test: HEK-TLR7 NF-κB-luciferase reporter, R848 stimulation
Type: cell-based
Conditions: MOE-modified ASO at 500 nM; averaged NF-κB-Luciferase relative to R848 condition
assay_readout: TLR7 500 nM
Reply with just the number.

Check out these entries, answers already filled in.
AGATCTGGCAGCCCATCAAC (antisense; 2'-MOE modified, pattern not given here) [CTNN2B-2516 MOE]: 0.201
CACCCACTTGGCAGACCATC (antisense; 2'-MOE modified, pattern not given here) [CTNN2B-1576 MOE]: 0.227
TCCGGCCTCGGAAGCTCTCT (antisense; 2'-MOE modified, pattern not given here) [MB21D1-168 MOE]: 0.166
CAACACTTCGTGGGGTCCTT (antisense; 2'-MOE modified, pattern not given here) [HPRT-665 MOE]: 0.285

Reading of TLR7 500 nM for GGTTTTGGCTGGGATCAAGT (antisense; 2'-MOE modified, pattern not given here) [CAMSAP1-4697 MOE] with human TLR7 (Homo sapiens, UniProt Q9NYK1): 0.191
